tested on: LoVo colon adenocarcinoma cells; assay: MTS cytotoxicity assay, LoVo; type: cell-based; settings: Homo sapiens, 400 μM, 48 h, read-out: cell viability
Measured viability at 400 µM, listed per entry.
recorded_metric: viability at 400 µM (%)

* CCc1cc(C(=O)OC)c2ccc(-c3ccc(F)cc3)nn12 | 60.3
* CCC(C(=O)O)n1nc(-c2ccccc2)ccc1=O (centres unmarked) | 60.8
* CCC(C(=O)O)n1nc(-c2ccc(F)cc2)ccc1=O (centres unmarked) | 81.1
* CCC(C(=O)O)n1nc(-c2ccc(Cl)cc2)ccc1=O (centres unmarked) | 48.1
* CCc1cc(C(=O)OC)c2ccc(-c3ccccc3)nn12 | 48.5
